# TEST_TARGET: T1, Bzz1-1, P38822
# T1 sequence (P38822 478-572, looked up): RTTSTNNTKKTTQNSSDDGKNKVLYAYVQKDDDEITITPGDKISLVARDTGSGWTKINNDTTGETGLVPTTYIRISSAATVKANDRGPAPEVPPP
# ASSAY_NAME: SPOT array
# EXPERIMENTAL_CONTEXT: median of control spots 4446
METRIC_NAME: SPOT intensity

{"BINDER": "VPPPMQPPPIESSNL", "OBS_VALUE": 0}
{"BINDER": "FFRRSELYLPNSSKA", "OBS_VALUE": 1}
{"BINDER": "LLGRKRPVMERVVDI", "OBS_VALUE": 0}
{"BINDER": "AATTSTPPLPRRRAT", "OBS_VALUE": 0}

(a) KTKQQKPAIPQKKSF
(b) NFKRLLPRDPSEKSS
(c) GKFIPSRPAPKPPSS
Let's sort these by SPOT intensity, smallest first. Go ahead? # the answer lists labels in the order requested
a, b, c
